From: patent US20240254089A1

The following compounds are shown together with reported IC50 values.
testSystem: human MRGPR X4 (Homo sapiens, UniProt Q96LA9)
Construct: expressed in transfected cells
Sequence (Q96LA9 whole entry): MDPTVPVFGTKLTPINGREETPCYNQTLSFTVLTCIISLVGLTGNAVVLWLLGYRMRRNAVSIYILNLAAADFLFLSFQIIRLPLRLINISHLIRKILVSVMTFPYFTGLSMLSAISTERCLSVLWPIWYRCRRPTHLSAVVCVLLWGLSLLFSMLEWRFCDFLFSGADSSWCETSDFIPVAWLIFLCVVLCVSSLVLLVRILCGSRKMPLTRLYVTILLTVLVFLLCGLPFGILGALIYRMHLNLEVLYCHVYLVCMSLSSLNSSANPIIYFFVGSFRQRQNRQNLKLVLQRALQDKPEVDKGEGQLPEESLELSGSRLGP
assayDetails: MRGPR X4 antagonist activity, IP-One Gq HTRF assay in stably transfected HEK cells
Type: cell-based

Worked cases, answers included:
[[record]]
testsmiles = "N#Cc1ccc(Cn2cc(C(=O)NCCc3ccc(Cl)c(F)c3)c3ccccc32)cc1"
testsystem = "human MRGPR X4 (Homo sapiens, UniProt Q96LA9)"
parametermeasured = "IC50"
recordedresult = "501 to 1000 nM"

[[record]]
testsmiles = "Cc1ccc(Cn2cc(C(=O)NCCc3c[nH]c4ccccc34)c3ccccc32)cc1"
testsystem = "human MRGPR X4 (Homo sapiens, UniProt Q96LA9)"
parametermeasured = "IC50"
recordedresult = "100 to 500 nM"

[[record]]
testsmiles = "O=C(NCCc1ccccn1)c1cn(Cc2cccc(F)c2)c2ccccc12"
testsystem = "human MRGPR X4 (Homo sapiens, UniProt Q96LA9)"
parametermeasured = "IC50"
recordedresult = "1000 to 2500 nM"


Prompt: Query IC50 for Cc1cc(C)c(Cn2nc(C(=O)NCCc3nnc4ccccn34)c3ccccc32)c(C)c1
Response: 100 to 500 nM

Prompt: Indicate the recorded IC50 value for this compound: CC(C)(C#N)c1ccc(Cn2nc(C(=O)NCCc3nnc4ccccn34)c3ccccc32)cc1
Response: 1000 to 2500 nM

Prompt: # return recorded IC50 for input Cn1ncc2cccc(Cn3nc(C(=O)NCCc4nnc5ccccn45)c4ccccc43)c21
Response: 501 to 1000 nM

* * *

testSystem: human MRGPR X4 (Homo sapiens, UniProt Q96LA9)
Construct: expressed in transfected cells
assayDetails: MRGPR X4 antagonist activity, IP-One Gq HTRF assay in stably transfected HEK cells
Assay type: cell-based
Description: HEK cells stably transfected to express human MIRGPR X4 were maintained in an incubator at 37° C. with 5% CO2 and grown in DMEM media with 10% fetal bovine serum (FBS) and […] each of sodium pyruvate, Glutamax, penicillin/streptomycin, and Geneticin. […] Cells were plated in a 384-well assay plate at 20,000 cells per well in 12 μL of Opti-MEM and kept in an incubator overnight. […] The plate was read on a Molecular Devices SpectraMax iD5 plate reader. […]
pIC50: −log10 of the molar value.
parameterMeasured: pIC50

// below: answered compounds
[[record]]
testsmiles = "O=C(NCCc1nnc2ccccn12)c1nn(Cc2ccc(Cl)c(Cl)c2)c2ccc(F)cc12"
recordedresult = "> 7.00"

[[record]]
testsmiles = "O=C(NCCc1cncnc1)c1nn(Cc2ccc(Cl)cc2)c2ccccc12"
recordedresult = "5.60 to 6.00"

[[record]]
testsmiles = "O=C(NCCc1cccnc1)c1nn(Cc2ccccc2Cl)c2ccccc12"
recordedresult = "6.00 to 6.30"


Prompt: Please indicate pIC50 recorded for N#Cc1ccc(Cn2cc(C(=O)NCCc3ccccn3)c3ccccc32)cc1
Response: 6.00 to 6.30

Prompt: Supply reported pIC50 belonging to this compound: O=C(NCCc1nc2ccccc2s1)c1nn(Cc2ccc(Cl)cc2)c2ccccc12
Response: 6.30 to 7.00

Prompt: Give the measured pIC50 for O=C(NCCc1nnc2ccccn12)c1nn(CCCC2CCCC2)c2ccccc12
Response: 6.30 to 7.00

* * *

testSystem: human MRGPR X4 (Homo sapiens)
Construct: expressed in transfected cells
assayDetails: MRGPR X4 antagonist activity, IP-One Gq HTRF assay in stably transfected HEK cells
Type: cell-based
parameterMeasured: IC50

[[record]]
testsmiles = "Cc1cc(Cl)ccc1Cn1nc(C(=O)NCCc2nnc3ccccn23)c2ccccc21"
recordedresult = "< 100 nM"

[[record]]
testsmiles = "O=C(NCCc1nnc2ccccn12)c1nn(Cc2nc3ccccc3s2)c2ccccc12"
recordedresult = "< 100 nM"

[[record]]
testsmiles = "O=C(NCCc1nnc2ccccn12)c1nn(Cc2nc3ccccc3[nH]2)c2ccccc12"
recordedresult = "1000 to 2500 nM"

[[record]]
testsmiles = "Cc1nc(Cn2nc(C(=O)NCCc3nnc4ccccn34)c3ccccc32)cs1"
recordedresult = "100 to 500 nM"

[[record]]
testsmiles = "Cc1cnc(CCNC(=O)c2cn(Cc3ccc(Cl)cc3)c3ccccc23)nc1"
recordedresult = "1000 to 2500 nM"

[[record]]
testsmiles = "Cc1noc(C)c1CCCNC(=O)c1nn(Cc2ccc(Cl)cc2)c2ccccc12"
recordedresult = "1000 to 2500 nM"


Prompt: Provide the reported IC50 (system: human MRGPR X4 (Homo sapiens)) for Cc1cccc(Cn2cc(C(=O)NCCc3ccc(Cl)c(F)c3)c3ccccc32)c1
Response: 1000 to 2500 nM
